assay: Light fastness of printed samples (density loss after xenon lamp irradiation); type: physicochemical; conditions: xenon lamp, total illumination 20 kJoule/cm^2; Table 6
Values of Density loss in % strictly less than 4% map to TRUE, and values of at least 4% map to FALSE.

O=S(=O)(O)CCNc1ccc2cc(S(=O)(=O)O)c(N=Nc3ccc(N=Nc4ccc(CS(=O)(=O)O)cc4)c4cc(S(=O)(=O)O)ccc34)c(O)c2c1    FALSE
O=S(=O)(O)CCNc1ccc2cc(S(=O)(=O)O)c(N=Nc3ccc(N=Nc4ccc(S(=O)(=O)O)cc4)c4ccc(S(=O)(=O)O)cc34)c(O)c2c1 [Compound 3]    FALSE
O=C(O)c1cc(N=Nc2ccc(N=Nc3c(S(=O)(=O)O)cc4ccc(NCCS(=O)(=O)O)cc4c3O)c3cc(S(=O)(=O)O)ccc23)cc(C(=O)O)c1    TRUE
O=S(=O)(O)CCNc1ccc2cc(S(=O)(=O)O)c(N=Nc3ccc(N=Nc4cc(S(=O)(=O)O)c5cccc(S(=O)(=O)O)c5c4)c4ccc(S(=O)(=O)O)cc34)c(O)c2c1    TRUE
O=C(O)CCC(NC(=O)c1ccc(N=Nc2ccc(N=Nc3c(S(=O)(=O)O)cc4ccc(NCCS(=O)(=O)O)cc4c3O)c3cc(S(=O)(=O)O)ccc23)cc1)C(=O)O (stereo not shown)    TRUE
O=S(=O)(O)CCNc1ccc2cc(S(=O)(=O)O)c(N=Nc3ccc(N=Nc4cccc(S(=O)(=O)O)c4)c4cc(S(=O)(=O)O)ccc34)c(O)c2c1    FALSE
O=S(=O)(O)CCNc1ccc2cc(S(=O)(=O)O)c(N=Nc3ccc(N=Nc4ccc(S(=O)(=O)O)cc4)c4cc(S(=O)(=O)O)ccc34)c(O)c2c1    FALSE
O=C(O)c1cc(N=Nc2ccc(N=Nc3c(S(=O)(=O)O)cc4ccc(NCCS(=O)(=O)O)cc4c3O)c3ccc(S(=O)(=O)O)cc23)cc(C(=O)O)c1    TRUE
O=C(O)Cc1ccc(N=Nc2ccc(N=Nc3c(S(=O)(=O)O)cc4ccc(NCCS(=O)(=O)O)cc4c3O)c3cc(S(=O)(=O)O)ccc23)cc1    TRUE
O=S(=O)(O)CCNc1ccc2cc(S(=O)(=O)O)c(N=Nc3ccc(N=Nc4ccc(CS(=O)(=O)O)cc4)c4ccc(S(=O)(=O)O)cc34)c(O)c2c1    FALSE
O=C(O)c1cccc(N=Nc2ccc(N=Nc3c(S(=O)(=O)O)cc4ccc(NCCS(=O)(=O)O)cc4c3O)c3cc(S(=O)(=O)O)ccc23)c1    TRUE

###

test: Color co-ordinates (L*a*b*) of printed samples; assay type: physicochemical; conditions: Table 6
parameter-measured: L*a*b*-value: a*

O=S(=O)(O)CCNc1ccc2cc(S(=O)(=O)O)c(N=Nc3ccc(N=Nc4ccc(S(=O)(=O)O)cc4)c4ccc(S(=O)(=O)O)cc34)c(O)c2c1 [Compound 5]    2.0
O=C(O)CCc1ccc(N=Nc2ccc(N=Nc3c(S(=O)(=O)O)cc4ccc(NCCS(=O)(=O)O)cc4c3O)c3cc(S(=O)(=O)O)ccc23)cc1    3.8
O=S(=O)(O)CCNc1ccc2cc(S(=O)(=O)O)c(N=Nc3ccc(N=Nc4cccc(S(=O)(=O)O)c4)c4cc(S(=O)(=O)O)ccc34)c(O)c2c1    14.6
O=S(=O)(O)CCNc1ccc2cc(S(=O)(=O)O)c(N=Nc3ccc(N=Nc4ccc5c(S(=O)(=O)O)cc(S(=O)(=O)O)cc5c4)c4ccc(S(=O)(=O)O)cc34)c(O)c2c1    3.8
O=C(O)CCC(NC(=O)c1ccc(N=Nc2ccc(N=Nc3c(S(=O)(=O)O)cc4ccc(NCCS(=O)(=O)O)cc4c3O)c3cc(S(=O)(=O)O)ccc23)cc1)C(=O)O (centres unmarked)    7.5

Values were extracted from patent US5969115A.
